Where these numbers come from: patent US20240058450A1

Target: Bcl-xL (Homo sapiens)
Sequence (Q07817 whole entry): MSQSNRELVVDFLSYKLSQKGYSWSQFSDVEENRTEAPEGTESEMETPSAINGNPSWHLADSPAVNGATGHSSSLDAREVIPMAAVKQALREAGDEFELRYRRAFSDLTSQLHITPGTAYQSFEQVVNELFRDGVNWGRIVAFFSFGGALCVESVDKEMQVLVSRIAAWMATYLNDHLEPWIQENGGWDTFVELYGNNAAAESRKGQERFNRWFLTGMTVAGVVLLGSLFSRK
Experiment: Time Resolved-Fluorescence Resonance Energy Transfer (TR-FRET) binding assay, competition with probe F-Bak
Conditions: without HS; read-out: Bcl-xL Binding Ki
Method: Tb-anti-GST antibody was purchased from Invitrogen (Catalog No. PV4216). For the assay, test compounds were serially diluted in DMSO starting at 50 μM (2× starting concentration; 10% DMSO) and 10 μL transferred into a 384-well plate. […] The samples were then mixed on a shaker for 1 minute and incubated for an additional 2 hours at room temperature. […] Dissociation constants (Ki) were determined using Wang's equation (Wang, 1995, FEBS Lett. 360:111-114). […]
assay-readout: Ki

INSERT INTO results (compound, assay_readout, test_result) VALUES
  ('Cc1c(-c2ccc(N3CCc4cccc(C(=O)Nc5nc6ccccc6s5)c4C3)nc2C(=O)O)cnn1CC12CC3(C)CC(C)(C1)CC(OCCN(CCS(=O)(=O)O)C(=O)[C@@H](N)CS(=O)(=O)O)(C3)C2 [Example 1.37]', 'Ki', '< 1 pM'),
  ('Cc1c(-c2ccc(N3CCc4cccc(C(=O)Nc5nc6ccccc6s5)c4C3)nc2C(=O)O)cnn1CC12CC3(C)CC(C)(C1)CC(OCCN(CCNCCS(=O)(=O)O)CCS(=O)(=O)O)(C3)C2 [Example 1.48]', 'Ki', '< 1 pM'),
  ('Cc1c(-c2ccc(N3CCc4cccc(C(=O)Nc5nc6ccccc6s5)c4C3)nc2C(=O)O)cnn1CC12CC3(C)CC(C)(C1)CC(OCCNCC[C@@H](O)[C@H](O)[C@H](O)CO)(C3)C2 [Example 1.77]', 'Ki', '< 10 pM');
